biological target: PKBα (Homo sapiens, UniProt P31749); assay: PKB kinase assay (P33-labeled ATP, synthetic peptide substrate, filter plate); conditions: PKBα enzyme (full length or kinase domain with pleckstrin domain deleted)
Sequence (P31749 118-480 limits assumed): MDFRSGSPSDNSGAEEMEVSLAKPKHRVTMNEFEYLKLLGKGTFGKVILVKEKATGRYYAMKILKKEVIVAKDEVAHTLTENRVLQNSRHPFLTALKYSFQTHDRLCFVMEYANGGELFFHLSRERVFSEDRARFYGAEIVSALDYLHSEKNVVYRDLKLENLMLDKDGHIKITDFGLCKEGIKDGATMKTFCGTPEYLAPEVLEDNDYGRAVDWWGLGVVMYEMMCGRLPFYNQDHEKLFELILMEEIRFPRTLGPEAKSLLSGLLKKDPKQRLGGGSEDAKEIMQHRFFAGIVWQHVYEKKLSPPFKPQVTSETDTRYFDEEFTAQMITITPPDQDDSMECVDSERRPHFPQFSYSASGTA
reported-metric: IC50

Consider the following illustrative entries.
INSERT INTO results (molecule, result) VALUES
  ('N[C@H](CCc1cn(-c2ccc3[nH]ncc3c2)nn1)Cc1ccc(C(F)(F)F)nc1 [Example 67, bistrifluoroacetate]', '0.05 to 1 µM'),
  ('COc1ccc(CNc2ncc(-c3ccncc3)o2)cc1', '1 to 10 µM'),
  ('N[C@H](CNc1cc(-c2ccc3cnccc3c2)no1)Cc1ccc(Br)cc1', '< 0.05 µM');

Requested field: IC50. Item: NCCc1c(-c2ccc3cnccc3c2)noc1NC[C@@H](N)Cc1c[nH]c2ccccc12
1 to 10 µM

Consider the molecule COc1ccc(CNc2ncc(-c3ccccc3)o2)cc1 and give its measured IC50.
1 to 10 µM

Fill in the blank: the reported IC50 of N[C@H](CNc1cc(-c2ccc3cnccc3c2)no1)Cc1cccc(Cl)c1 is ____.
< 0.05 µM

Request the reported IC50 associated with N[C@H](CCn1cc(-c2ccc3cnccc3c2)cn1)Cc1ccc(C(F)(F)F)cc1
< 0.05 µM

Suppose we examine the molecule N[C@H](CCc1cc(-c2ccc3cnccc3c2)no1)Cc1ccccc1Cl ; what IC50 value has been reported?
1 to 10 µM

Measured values drawn from patent US7897619B2 for this set.
